B1: library; a variant is named by its letters at N, in order (parent)
chain: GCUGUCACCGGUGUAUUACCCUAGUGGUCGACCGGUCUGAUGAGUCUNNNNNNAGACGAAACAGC

Variants of: B1
ASSAY_INFO: normalized RNA/DNA level with ligand (relative to sTRSVctl = 100) (log10 (% of sTRSVctl)); ligand: hypoxanthine (xanthine aptamer); higher = less ribozyme self-cleavage, higher mRNA level
PARTICULARS: ligand concentration (+) RNA-Seq: 5 mM, HEK293T, reporter: mCherry (pCS4076), ligand present: yes
Catalogue of variants with associated normalized RNA/DNA level with ligand (log10)
Simply state the number, no unit and no words.

Observe how each entry below is paired with its result.
{"columns": ["SEQ_TEXT", "ENDPOINT_VALUE"],
 "data": [
  ["GCUGUCACCGGUGUAUUACCCUAGUGGUCGACCGGUCUGAUGAGUCUUCCACUAGACGAAACAGC [UCCACU]", 1.96],
  ["GCUGUCACCGGUGUAUUACCCUAGUGGUCGACCGGUCUGAUGAGUCUGGUAGUAGACGAAACAGC [GGUAGU]", 1.9],
  ["GCUGUCACCGGUGUAUUACCCUAGUGGUCGACCGGUCUGAUGAGUCUAACUGUAGACGAAACAGC [AACUGU]", 1.89]
]}

For the variant shown here, GCUGUCACCGGUGUAUUACCCUAGUGGUCGACCGGUCUGAUGAGUCUCCCGUCAGACGAAACAGC [CCCGUC] , give the reported normalized RNA/DNA level with ligand (log10).
2.03

For the variant shown here, GCUGUCACCGGUGUAUUACCCUAGUGGUCGACCGGUCUGAUGAGUCUCACAUAAGACGAAACAGC [CACAUA] , give the reported normalized RNA/DNA level with ligand (log10).
1.91

For the variant shown here, GCUGUCACCGGUGUAUUACCCUAGUGGUCGACCGGUCUGAUGAGUCUUGGUGCAGACGAAACAGC [UGGUGC] , give the reported normalized RNA/DNA level with ligand (log10).
1.94

For the variant shown here, GCUGUCACCGGUGUAUUACCCUAGUGGUCGACCGGUCUGAUGAGUCUUUUAUGAGACGAAACAGC [UUUAUG] , give the reported normalized RNA/DNA level with ligand (log10).
1.92
